# measured on: VAV1 (Homo sapiens, UniProt P15498+Q96SW2)
# Construct: A heterozygous VAV1 C-terminal HiBiT knock-in pool was generated at Monte Rosa Therapeutics from a clonal Jurkat cell; endogenous in cells; host or cells: Jurkat clone stably expressing LgBiT, homozygous GSPT1-G575N; heterozygous VAV1-HiBiT knock-in pool
# experiment notes: VAV1 degradation activity, VAV1-HiBiT knock-in Jurkat luminescence assay (Example A, Table 1)
# Type: cell-based
# stated conditions: Jurkat, VAV1-HiBiT knock-in Jurkat cells, luminescence read at 6 and 24 hours; read-out: VAV1 Dmax %

compound	measured on	Dmax, %
O=C1CCC(c2cccc(-c3ccc(N4CC5CC5C4=O)cc3)c2Cl)C(=O)N1 (centres unmarked)	VAV1 (Homo sapiens, UniProt P15498+Q96SW2)	80.8
Cn1cnc(Cn2c(=O)oc3cc(-c4cccc(C5CCC(=O)NC5=O)c4Cl)ccc32)c1 (centres unmarked)	VAV1 (Homo sapiens, UniProt P15498+Q96SW2)	94.8
CC1CCC(=O)N(Cc2ccc(-c3cccc(C4CCC(=O)NC4=O)c3Cl)cc2)C1 (centres unmarked)	VAV1 (Homo sapiens, UniProt P15498+Q96SW2)	96.7
Cc1ccnc(Cc2ccc(-c3cccc(C4CCC(=O)NC4=O)c3Cl)cc2)n1 (centres unmarked)	VAV1 (Homo sapiens, UniProt P15498+Q96SW2)	96.5
CC1CCN(c2ccc(-c3cccc(C4CCC(=O)NC4=O)c3Cl)cc2)C1=O (centres unmarked)	VAV1 (Homo sapiens, UniProt P15498+Q96SW2)	72
Cn1ccc(COc2ccc(-c3c(C#N)ccc(C4CCC(=O)NC4=O)c3Cl)cc2)n1 (centres unmarked)	VAV1 (Homo sapiens, UniProt P15498+Q96SW2)	32.8
O=C1CCC(c2cccc(-c3ccc(-n4ccccc4=O)cc3)c2Cl)C(=O)N1 (centres unmarked)	VAV1 (Homo sapiens, UniProt P15498+Q96SW2)	97
O=C1CCC(c2cccc(-c3ccc(N4C(=O)CCCC45CC5)cc3)c2Cl)C(=O)N1 (centres unmarked)	VAV1 (Homo sapiens, UniProt P15498+Q96SW2)	98.5
O=C1CCC(c2cccc(-c3ccc(N4CC5(COC5)CC4=O)cc3)c2Cl)C(=O)N1 (centres unmarked)	VAV1 (Homo sapiens, UniProt P15498+Q96SW2)	29.2
Nc1nccn1Cc1ccc(-c2cccc(C3CCC(=O)NC3=O)c2Cl)cc1 (centres unmarked)	VAV1 (Homo sapiens, UniProt P15498+Q96SW2)	84.1
O=C1CCC(c2cccc(-c3ccc(N4CCOCC4)cc3)c2Cl)C(=O)N1 (centres unmarked)	VAV1 (Homo sapiens, UniProt P15498+Q96SW2)	57.8
CC1(C)CCCC(=O)N1Cc1ccc(-c2cccc(C3CCC(=O)NC3=O)c2Cl)cc1 (centres unmarked)	VAV1 (Homo sapiens, UniProt P15498+Q96SW2)	93.7
O=C1CCC(c2cccc(-c3cnc(N4CCCCC4=O)c(F)c3)c2Cl)C(=O)N1 (centres unmarked)	VAV1 (Homo sapiens, UniProt P15498+Q96SW2)	69.5
Cn1ccc(-c2ccc(-c3cccc(C4CCC(=O)NC4=O)c3Cl)cc2)n1 (centres unmarked)	VAV1 (Homo sapiens, UniProt P15498+Q96SW2)	71.9
COCCCOc1ccc(-c2cccc(C3CCC(=O)NC3=O)c2Cl)cc1 (centres unmarked)	VAV1 (Homo sapiens, UniProt P15498+Q96SW2)	91.4
Cc1cccc(=O)n1Cc1ccc(-c2cccc(C3CCC(=O)NC3=O)c2Cl)cc1 (centres unmarked)	VAV1 (Homo sapiens, UniProt P15498+Q96SW2)	92.1
CN1CCCN(c2ccc(-c3cccc(C4CCC(=O)NC4=O)c3Cl)cc2)C1=O (centres unmarked)	VAV1 (Homo sapiens, UniProt P15498+Q96SW2)	95.4
O=C1CCC(c2cccc(-c3ccc(N4CCOC(F)(F)C4=O)cc3)c2Cl)C(=O)N1 (centres unmarked)	VAV1 (Homo sapiens, UniProt P15498+Q96SW2)	84.9
O=C1CCC(c2cccc(-c3ccc(N4C(=O)CCCC45CCC5)cc3)c2Cl)C(=O)N1 (centres unmarked)	VAV1 (Homo sapiens, UniProt P15498+Q96SW2)	98.2
O=C1CCC(c2cccc(-c3ccc(N4CCN(CC(F)F)CC4=O)cc3)c2Cl)C(=O)N1 (centres unmarked)	VAV1 (Homo sapiens, UniProt P15498+Q96SW2)	95.2

meta.source: patent US12257247B2
